- System Tested: Recombinant STAT6 protein (STAT6 (W123-T658)) (Homo sapiens, UniProt P42226)
- Construct: Recombinant STAT6 protein (STAT6 (W123-T658))
- Method Description: STAT6 Fluorescence Polarization (FP) Assay
- Assay type: binding
- Experimental Setup: STAT6 (W123-T658) 250 nM, probe 5-FAM-Ap[…]-NH2 2 nM, 45-minute incubation; read-out: STAT6 (FP assay IC50 class)
Measurement Kind: IC50

Here is how some compounds turned out for IC50.
O=C(N[C@H]1CCC[C@H]2CC[C@@H](C(=O)N3CC(n4cnccc4=O)C3)N2C1=O)c1cc2cc(C(F)P(=O)(O)O)ccc2s1 (stereo partly drawn) : 3 to 30 µM
CNc1c(F)cncc1C1CN(C(=O)[C@@H]2CC[C@@H]3CCC[C@H](NC(=O)c4cc5cc([C@H](F)P(=O)(O)O)ccc5s4)C(=O)N32)C1 (single isomer, unassigned) : 3 to 30 µM
Cc1ccnc(F)c1C1CN(C(=O)[C@@H]2CC[C@@H]3CCC[C@H](NC(=O)c4cc5cc(CP(=O)(O)O)ccc5s4)C(=O)N32)C1 : 3 to 30 µM
N#C[C@@H]1CN(C(=O)[C@@H]2CC[C@@H]3CCC[C@@H](C4CC4)[C@H](NC(=O)c4cc5cc(C(F)(F)P(=O)(O)O)ccc5s4)C(=O)N32)C[C@H]1c1ccccc1 (single isomer, unassigned) : ≤ 0.3 µM
O=C(N[C@H]1CCC[C@H]2CC[C@@H](C(=O)N3CC(c4ccnc(O)c4)C3)N2C1=O)c1cc2cc(C(F)P(=O)(O)O)ccc2s1 (stereo partly drawn) : 3 to 30 µM

Let us move to another entry and its IC50.
The reported value for Cc1ccncc1C1CN(C(=O)[C@@H]2CC[C@@H]3CCC[C@H](NC(=O)c4cc5cc(C(F)(F)P(=O)(O)O)ccc5s4)C(=O)N32)C1 in terms of IC50 is > 30 µM

---

- System Tested: pY641-STAT6 in PBMC (Homo sapiens, UniProt P42226)
- Construct: Cryopreserved Peripheral Blood Mononuclear Cells (PBMC) are from AllCells; host or cells: cryopreserved PBMC
- Sequence (P42226 1-847): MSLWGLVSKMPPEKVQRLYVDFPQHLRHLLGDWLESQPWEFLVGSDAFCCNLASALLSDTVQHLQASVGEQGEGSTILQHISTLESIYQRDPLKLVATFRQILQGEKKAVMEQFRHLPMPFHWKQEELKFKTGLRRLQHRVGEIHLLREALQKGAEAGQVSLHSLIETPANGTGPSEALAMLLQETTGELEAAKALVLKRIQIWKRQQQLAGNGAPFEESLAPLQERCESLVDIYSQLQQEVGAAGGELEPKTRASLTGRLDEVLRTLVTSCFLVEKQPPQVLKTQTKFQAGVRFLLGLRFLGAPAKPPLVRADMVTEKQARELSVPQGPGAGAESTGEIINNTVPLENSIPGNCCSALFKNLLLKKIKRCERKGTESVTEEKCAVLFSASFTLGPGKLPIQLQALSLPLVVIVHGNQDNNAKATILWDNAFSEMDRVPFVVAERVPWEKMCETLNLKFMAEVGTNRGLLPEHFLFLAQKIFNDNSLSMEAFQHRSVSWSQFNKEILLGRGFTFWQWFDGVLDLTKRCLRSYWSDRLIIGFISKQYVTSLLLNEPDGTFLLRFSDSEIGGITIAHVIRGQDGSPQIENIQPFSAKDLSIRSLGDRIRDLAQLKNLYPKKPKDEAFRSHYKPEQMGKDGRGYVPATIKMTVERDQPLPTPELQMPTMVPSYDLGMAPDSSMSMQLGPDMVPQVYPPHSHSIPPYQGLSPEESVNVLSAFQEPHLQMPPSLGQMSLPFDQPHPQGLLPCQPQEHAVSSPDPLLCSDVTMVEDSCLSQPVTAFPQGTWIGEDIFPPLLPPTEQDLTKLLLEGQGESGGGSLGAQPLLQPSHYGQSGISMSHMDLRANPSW
- Method Description: MSD-pSTAT-PBMC Assay (pSTAT6, IL-4 stimulated)
- Assay type: cell-based
- Experimental Setup: STAT6, PBMC, compound 3 hrs, then 1 ng/mL IL-4 for 10 min; Table 115
pIC50: −log10 of the molar value.
Measurement Kind: pIC50

Here is how some compounds turned out for pIC50.
CCCOC(=O)[C@H](C)NP(=O)(Cc1ccc2ccc(C(=O)N[C@H]3CCCC[C@H]4CC[C@@H](C(=O)N5C[C@@H](c6cc[nH]c(=O)c6)CC56CC6)N4C3=O)cc2c1)Oc1ccccc1 (stereo partly drawn) : 5.52 to 6.00
CCCOC(=O)[C@H](C)NP(=O)(Oc1ccccc1)C(F)c1ccc2ccc(C(=O)N[C@H]3CCCC[C@H]4CC[C@@H](C(=O)N5C[C@H](c6ccccc6)[C@@H](C#N)C56CC6)N4C3=O)cc2c1 (stereo partly drawn) : > 7.00

Let us move to another entry and its pIC50.
The reported value for CCCOC(=O)[C@H](C)NP(=O)(Oc1ccccc1)[C@@H](F)c1ccc2sc(C(=O)N[C@H]3CCCC[C@H]4CC[C@@H](C(=O)N5C(=O)N(c6cncc(C(F)(F)F)c6)C(=O)C56CC6)N4C3=O)cc2c1 (stereo partly drawn) in terms of pIC50 is < 5.52
